System: TNK1;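 also: KINOMEscan kinase panel screen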
Settings: concentration: 1 μM, replicates: in singlicate; n = 1
Measured endpoint: %Inh (%)

INSERT INTO measurements (query_smiles, experimental_system, measured_endpoint, endpoint_result) VALUES
  ('CN(c1ccc(NC(=O)N2CCN(CCCN3CCOCC3)CC2)cc1)c1ccnc(Nc2ccc(CS(C)(=O)=O)cc2)n1.Cl', 'TNK1', '%Inh', 41),
  ('Cc1ccc(NC(=O)c2cccc(N3CCCCC3)c2)cc1-c1ccc(C(=O)NCC2CC2)cc1', 'TNK1', '%Inh', 6),
  ('Nc1ncc(-c2cn[nH]c2)c2scc(-c3ccc4c(c3)CCN4C(=O)Cc3ccccc3)c12', 'TNK1', '%Inh', 45),
  ('CN(C)CCOc1ccc(-c2cc(-c3ccc(Cl)c(O)c3)c(-c3ccncc3)[nH]2)cc1.Cl.Cl', 'TNK1', '%Inh', 28);
